# experimental-target: T1, Ebola virus GP with a C-terminal polyhistidine tag (Sino Biologicals, Catalog #40442-V08B1) (Ebola virus, UniProt P87666 33-650)
# T1 construct: also called EbolaGP.his; Ebola virus GP.his
# protocol-description: SPR 25C, mAb captured
Quick reference: t½ of the listed items.

# count of solved cases: 4
[[record]]
binder = "H1H17203P (antibody, V domains shown) VH: QVQLVESGGGVVQPGRSLRLSCAASGFTFNNYGMHWVRQAPGMGLEWVAVIWHDGSDKYYADSVKGRFTISRDNSKNTLYLQMNSLRAEDTAVYYCARNWNLFDYWGQGTLVTVSS VL: DIQMTQSPSSLSASVGDRITITCRASQSISTYLHWYQQKPGKAPKLLIYAASTLQSGVPSRFSGSGSGTDFTLTISSLQPEDFATYYCQQSFSTPPINFGQGTKLEIK"
value_reported = "1.15 h"

[[record]]
binder = "H1H17151P (antibody, V domains shown) VH: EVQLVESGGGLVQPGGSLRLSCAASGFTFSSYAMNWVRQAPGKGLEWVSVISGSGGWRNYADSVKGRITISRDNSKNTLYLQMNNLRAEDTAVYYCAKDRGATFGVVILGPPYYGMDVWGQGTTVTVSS VL: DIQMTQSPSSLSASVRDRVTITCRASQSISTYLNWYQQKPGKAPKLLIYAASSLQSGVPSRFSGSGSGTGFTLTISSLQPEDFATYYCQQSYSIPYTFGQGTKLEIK"
value_reported = "2.04 h"

[[record]]
binder = "H1H17214P (antibody, V domains shown) VH: EVQLVESGGGLVQPGGSLRLSCAASKFTFDTFAMSWVRQAPGKGLEWVSFISSSGGRTDYVDSVKGRFTISRDNSKNTLYLQMNSLRAEDTAVYYCAKERTIFGVLILGPDNYGMDVWGQGTTVTVSS VL: DIQMTQSPSSLSAFVGDRVTITCRASQSISTYLNWYQQKPGKAPKLLIYAASSLQSGVSSRFSGSGSGTDFTLTISSLQPEDFATYYCQQSYSAPPITFGQGTRLEIK"
value_reported = "≥ 19.2 h"

[[record]]
binder = "H1H17193P (antibody, V domains shown) VH: QVQLVESGGGVVQPGRSLRLSCAASGFTFSSYGIHWVRQAPGKWLEWVAFIWFDGSNKYYADSVKGRFTISRDDSKNTLYLQMNSLRAEDTAVYYCARDGEIFGVLISSDAFDIWGQGTMVTVSS VL: DIQMTQSPSSLSASVGDRVTITCRASRGIRNDLGWFQQKPGKAPKRLIYVASNLQSGVPSRFSGSGSGTEFTLTISSLQPEDFATYYCLQHNSYPITFGQGTRLEIK"
value_reported = "1.78 h"


Task item: # get_value(readout='t½', item= H1H17199P (antibody, V domains shown) VH: EVQLVESGGGLVQPGGSLRLSCAASGFTFSDHYMVWVRQAPGKGLEWVGRTRNKANSYSTEYAASVKGRFTISRDDSKKSLYLQMNSLKTEDTAVYYCARGGETLWFGESNYGMDVWGQGTTVTVSS VL: EIVLTQSPDTLSLSPGERATLSCRASQSVSSTYLAWYQQKPGQAPSLLIYGASSRATGIPDRFSGSGSGTDFTLTISRLEPEDFAVYYCQQYGRSPLTFGGGTKVEIK )
Reply: 0.817 h

Task item: For the binder shown here, H1H17196P (antibody, V domains shown) VH: EVQLVESGGGLVQPGGSLRLSCAASGFTFRSYDMHWVRQGSGKGLEWVSAIGTAGDTYYLGSVKGRFTISRENAKNSLYLQMNSLRAGDTAVYYCARAWFGDVFLDYWGQGTLVTVSS VL: EIVMTQSPATLSVSPGERATLSCRASQSVSSNLAWYQQKPGQAPRLLIYGASTRATGIPARFSGSGSGTEFTLTISSLQSEDFAGYYCQQYNNRLTFGGGTKVEIK , give the reported t½.
Reply: ≥ 19.2 h

Ref: patent US20160215040A1
